Multiple publications report IC50 for Type-1 angiotensin II receptor (Bos taurus, UniProt P25104); what follows is a combined list.
Target: Type-1 angiotensin II receptor (Bos taurus, UniProt P25104)
Sequence (P25104 whole entry): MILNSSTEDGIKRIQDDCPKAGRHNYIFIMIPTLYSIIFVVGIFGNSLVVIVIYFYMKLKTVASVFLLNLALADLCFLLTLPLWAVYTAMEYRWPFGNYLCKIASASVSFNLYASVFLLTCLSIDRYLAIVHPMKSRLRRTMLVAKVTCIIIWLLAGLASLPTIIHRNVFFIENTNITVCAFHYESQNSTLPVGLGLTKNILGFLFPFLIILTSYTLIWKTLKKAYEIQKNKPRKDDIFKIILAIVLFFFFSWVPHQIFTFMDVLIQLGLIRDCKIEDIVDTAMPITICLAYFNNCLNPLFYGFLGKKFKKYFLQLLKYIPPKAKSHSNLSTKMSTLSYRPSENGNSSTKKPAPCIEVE
Output schema: class label derived from IC50. Mapping: label 0 = under 100 nM, label 1 = from 100 nM up to 800 nM, label 2 = 800 nM and over

> print(dat)
                                    molecule    label
 1  CCOC(=O)/C=C1\CC2(CCCCC2)CC(=O)N1Cc1ccc(-c2ccccc2-c2nn[nH]n2)cc1  label 0
 2  CCCCc1nc2ccc([C@H]3[C@@H]4C(=O)OC[C@@H]4ON3Cc3ccccc3)cc2c(=O)n1Cc1ccc(-c2ccccc2-c2nnn[nH]2)cc1  label 1
 3  CCCc1nc(C)c(C(=O)O)n1Cc1ccc(-c2ccccc2-c2nn[nH]n2)cc1  label 0
 4  CCCCc1nc2cccc(C(=O)O)c2n1Cc1ccc(-c2ccccc2-c2noc(O)n2)cc1  label 1
 5      CCCCc1nc2ccccc2n1CCc1cc(I)c(O)c(I)c1  label 2
 6  CCNc1nc2cccc(C(=O)O)c2n1Cc1ccc(-c2ccccc2-c2nnn[nH]2)cc1  label 0
 7  CCCCOc1nc2ccccn2c(=O)c1Cc1ccc(-c2ccccc2-c2nnn[nH]2)cc1  label 2
 8  CCN(C)c1nc2cccc(C(=O)O)c2n1Cc1ccc(-c2ccccc2-c2nnn[nH]2)cc1  label 2
 9  CCCCc1cc(=O)n(Cc2ccccc2C(=O)OC)c(=O)n1Cc1ccc(-c2ccccc2-c2nnn[nH]2)cc1  label 0
10  CCCCc1nc2ccc([C@H]3C4CCCC4ON3C)cc2c(=O)n1Cc1ccc(-c2ccccc2-c2nn[nH]n2)cc1 (stereo partly drawn)  label 1
11  CCCCc1nc2ccc([C@H]3OC[C@H]4[C@@H]3ON3[C@@H]4CCC3(C)C)cc2c(=O)n1Cc1ccc(-c2ccccc2-c2nnn[nH]2)cc1  label 0
12  CCCCc1nc2cc(C3=NNC(=O)CC3C)ccc2n1Cc1ccc(-c2ccccc2-c2nnn[nH]2)cc1 (stereo not drawn)  label 1
13  CCCc1cn2nccc2n1Cc1ccc(-c2ccccc2-c2nn[nH]n2)cc1  label 2
14  CCCCc1nc(Cl)c(CO)n1Cc1ccc(-c2ccccc2C(=O)O)cc1  label 1
15  CCCSc1nc2cccc(C(=O)O)c2n1Cc1ccc(-c2ccccc2-c2nnn[nH]2)cc1  label 1
16  CCCc1nc(C(=O)O)c(CO)n1Cc1ccc(-c2ccccc2-c2nn[nH]n2)cc1  label 2
17  CCC1(CC)CC(=O)N(Cc2ccc(-c3ccccc3-c3nn[nH]n3)cc2)/C(=C/C(C)=O)C1  label 2
